# target-or-test-system: SARS-CoV-2 3CLpro (Severe acute respiratory syndrome coronavirus 2, UniProt P0DTD1)
# procedure-text: biochemical
# Type: biochemical
# Parameters: unit not given here
# condition-parameters: sheet LOPAC_screen_w_protease; LOPAC1280 primary screen at 5 µM, with protease; mean of the two replicates
Parameter threshold = 0.5. Response is 1 (yes) when mean meets or exceeds it, else 0 (no).

COC(=O)c1c(-c2cc(OC)c(OC)c(OC)c2)c2ccc(OCc3ccccn3)cc2c(=O)n1-c1ccc(N)cc1.O=S(=O)(O)O [T-1032] :: 1 (yes)
CC[C@@H]1C(=O)OC[C@@H]1Cc1cncn1C.Cl [(+)-Pilocarpine hydrochloride] :: 1 (yes)
CCCCS(=N)(=O)CCC(N)C(=O)O (racemic) [DL-Buthionine-[S,R]-sulfoximine] :: 1 (yes)

Request: State whether the measured mean reaches 0.5, counting equality as reaching it, for COC1=C(OC)C(=O)c2ccccc2C1=O [2,3-Dimethoxy-1,4-naphthoquinone]
Response: 1 (yes)

Request: Test whether the compound COc1cc(C(O)CO)ccc1OS(=O)(=O)[O-].[K+] (stereo not drawn) [MHPG sulfate potassium] records mean of 0.5 or higher.
Response: 1 (yes)

Request: Item COC(=O)c1c(-c2cc(OC)c(OC)c(OC)c2)c2ccnc(OCc3ncccn3)c2c(=O)n1Cc1ccnc(C)c1 [T-0156] with mean of 0.5 or above?
Response: 1 (yes)

Request: Check this compound for mean at or above 0.5: CC(C)(C)c1o[nH]c(=O)c1CC(N)C(=O)O (stereo not drawn) [ATPA]
Response: 0 (no)

Request: Assess whether reported mean for CN1CCN(c2ccc3ccccc3n2)CC1.O=C(O)/C=C\C(=O)O.O=C(O)/C=C\C(=O)O [Quipazine, N-methyl-, dimaleate] sits at 0.5 or higher.
Response: 1 (yes)

Request: Determine whether measured mean meets or exceeds 0.5 for CS(=O)(=O)O.Cn1cc(C(F)(F)F)nc1-c1ccc(OCC(O)CNCCOc2ccc(O)c(C(N)=O)c2)cc1 (stereo not drawn) [CGP 20712A methanesulfonate]
Response: 0 (no)

====

# target-or-test-system: SARS-CoV-2 3CLpro (Severe acute respiratory syndrome coronavirus 2, UniProt P0DTD1)
# procedure-text: biochemical
# Assay type: biochemical
# Parameters: unit not given here
# condition-parameters: sheet LOPAC_screen_w_protease; LOPAC1280 primary screen with protease, 5 µM compound; replicate 1
Binary call on Replicate_1 with cut-off 6: strictly below means t, and equality or higher means f.

Worked set:
CN1C2CCC1CC(NC(=O)c1nn(C)c3ccccc13)C2.O=C(O)/C=C\C(=O)O (stereo not drawn) [LY-278,584 maleate] :: t
O=c1[nH]c2cc(Cl)c(Cl)cc2[nH]c1=O [6,7-Dichloroquinoxaline-2,3-dione] :: t
C#CCN1C(C)=C(C(=O)OC)C(c2cccc([N+](=O)[O-])c2)C(C(=O)OCC)=C1C (stereo not drawn) [MRS 1845] :: t
CC1OC(C[N+](C)(C)C)CS1.[I-] (stereo not drawn) [OXA-22 iodide] :: f

Request: Confirm or reject: Replicate_1 of NC(N)=Nc1ccc2[nH]c3c(c2c1)C[C@@]1(O)[C@H]2Cc4ccc(O)c5c4[C@@]1(CCN2CC1CC1)[C@H]3O5.O=C(O)C(F)(F)F.O=C(O)C(F)(F)F lies strictly below 6
Response: f

Request: # strict comparison: is reported Replicate_1 < 6? input = O=C1Nc2ccc(I)cc2/C1=C/c1cc(Br)c(O)c(Br)c1 [GW5074]
Response: f

Request: # TODO verify Replicate_1 < 6 strictly for this molecule: C[C@](N)(Cc1ccc(O)cc1)C(=O)O [L-alpha-Methyl-p-tyrosine]
Response: t

Request: Lab note: Replicate_1 threshold 6. Does this molecule come in strictly under it? COc1cc(C(O)CN)ccc1O.Cl (racemic) [(±)-Normetanephrine hydrochloride]
Response: t

Request: Dear colleague, could you confirm whether Replicate_1 of COc1ccccc1N1CCN(CC(O)COc2cccc3ccccc23)CC1.Cl.Cl (stereo not drawn) [Naftopidil dihydrochloride] falls below 6? Thanks.
Response: f

Request: Problem: For the molecule CCCN1CCC[C@@H]2Cc3nc(N)ncc3C[C@H]21.Cl.Cl [Quinelorane dihydrochloride] , is Replicate_1 under 6?
Response: f

Request: Lab log: compare recorded Replicate_1 with 6; is it strictly lower for O=C(O)/C=C1\CCCc2ccccc2C1O (stereo not drawn) [NCS-382] ?
Response: t

Request: For this molecule, is Replicate_1 lower than 6? CC(N)Cc1c[nH]c2ccc(O)cc12.O=C(O)/C=C\C(=O)O (stereo not drawn) [alpha-Methyl-5-hydroxytryptamine maleate]
Response: t

====

# target-or-test-system: SARS-CoV-2 3CLpro (Severe acute respiratory syndrome coronavirus 2, UniProt P0DTD1)
# procedure-text: biochemical
# Type: biochemical
# condition-parameters: sheet LOPAC_screen_w_protease; primary screen at 5 µM; replicate 2
Define the label as True when Replicate_2 (LOPAC screen with protease) is strictly less than 9 and as False in all remaining cases.

CC1(NCC(O)COc2cccc3[nH]ccc23)CCC(C(C)(C)NC(=O)CBr)CC1 (racemic) [(±)-Pindobind, reference compound] :: False
CC(N)(Cc1ccc(O)c(O)c1)C(=O)O (racemic) :: True
N[C@@H](Cn1cc(I)c(=O)[nH]c1=O)C(=O)O [S-5-Iodowillardiine] :: True
C[N+](C)(C)CCC(=O)c1cccc2ccccc12.[I-] :: False
Br.CN1CCc2cc(O)cc3c2[C@H]1Cc1ccc(O)c(O)c1-3 :: False

Request: Record COc1ccccc1N1CCN(CCN(C(=O)c2ccc(F)cc2)c2ccccn2)CC1.Cl.Cl [p-MPPF dihydrochloride] : is its Replicate_2 (LOPAC screen with protease) strictly below 9?
Response: True

Request: I wonder whether C[N+]1(C)CCN(c2ccccc2)CC1.[I-] has Replicate_2 (LOPAC screen with protease) below 9. Can you tell?
Response: True

====

# target-or-test-system: SARS-CoV-2 3CLpro (Severe acute respiratory syndrome coronavirus 2, UniProt P0DTD1)
# procedure-text: biochemical
# Format: biochemical
# Set-up: unit not given here
# condition-parameters: sheet LOPAC_screen_w_protease; primary screen with protease, replicate 2
Label true when Replicate_2 is at or above 2; otherwise label false.

Recorded results for 10 molecules are shown here.
C[N+](C)(C)CCOC(=O)CBr.[Br-] [Bromoacetylcholine bromide] :: true
C[C@H](Cc1ccc(OCC(=O)[O-])cc1)NC[C@H](O)c1cccc(Cl)c1.[Na+] [BRL 37344 sodium] :: true
COc1ccccc1NC(=O)Nc1nc(-c2cccnc2)nc2ccccc12 :: true
C[N+]1(C)CCc2cc3c(cc2[C@H]1[C@@H]1OC(=O)c2c1ccc1c2OCO1)OCO3.[Br-] [(-)-Bicuculline methbromide, 1(S), 9(R)] :: true
N#CC(C#N)=Cc1ccc([N+](=O)[O-])c(O)c1 :: true
Cl.N[C@@H](CCl)C(=O)O [beta-Chloro-L-alanine hydrochloride] :: true
COc1cccc(NC(=O)/C=C/c2ccc(Cl)cc2)c1 :: false
COc1cccc(C(=O)NCCN2CCN(c3ccc(Cl)cc3)CC2)c1 :: true
COC[C@H]1OC(=O)c2coc3c2[C@@]1(C)C1=C(C3=O)[C@@H]2CCC(=O)[C@@]2(C)C[C@H]1OC(C)=O :: true
NC(N)=NCc1cccc(I)c1.NC(N)=NCc1cccc(I)c1.O=S(=O)(O)O [m-Iodobenzylguanidine hemisulfate] :: true

Request: Exam item: decide whether the reported Replicate_2 for CCCCC1(C2CCCC2)Cc2cc(OCC(=O)O)c(Cl)c(Cl)c2C1=O (stereo in doubt) [R(+)-Butylindazone] is at least 2.
Response: false

Request: # bool: Replicate_2 of CCN1CCC[C@H]1CNC(=O)c1c(OC)ccc(I)c1O [S(-)-IBZM] >= 2
Response: false

Request: Test whether the molecule Br.CCCN(CCC)[C@@H]1CCc2ccc(O)cc2C1 [R-(+)-7-Hydroxy-DPAT hydrobromide] records Replicate_2 of 2 or higher.
Response: true

Request: # bool: Replicate_2 of CCCn1c(=O)[nH]c(=O)c2nc[nH]c21 >= 2
Response: true

Request: Quick check, Replicate_2 >= 2? Nc1c2c(nc3ccccc13)CCCC2O.O=C(O)/C=C\C(=O)O (stereo not shown) [Hydroxytacrine maleate]
Response: false

====

# target-or-test-system: SARS-CoV-2 3CLpro (Severe acute respiratory syndrome coronavirus 2, UniProt P0DTD1)
# procedure-text: biochemical
# Assay type: biochemical
# Set-up: unit not given here
# condition-parameters: sheet LOPAC_screen_w_protease; primary screen with protease, 5 µM; replicate 1
attribute-measured: Replicate_1
Numbers only.

COc1ccc2c(c1)c(CC(=O)O)c(C)n2Cc1ccc(Cl)cc1 :: -0.9083
CC(C)(Sc1ccc(CCN(CCCCC2CCCCC2)C(=O)NC2CCCCC2)cc1)C(=O)O :: -0.1471
Br.NCc1cc(O)no1 [Muscimol hydrobromide] :: 2.752

// each compound listed below needs its Replicate_1
1. CCCCCC(O)CCCC(=O)O.[Na] (stereo not shown) [5-hydroxydecanoic acid sodium]
2. CC(C)Oc1cccnc1N(C)C1CCN(Cc2ccccc2)CC1.O=C(O)/C=C\C(=O)O [U-101958 maleate]
3. Nc1nc(SCc2ccc([N+](=O)[O-])cc2)c2ncn([C@@H]3O[C@H](CO)[C@@H](O)[C@H]3O)c2n1
4. CCCN(CCC)C1Cc2cc(OC)c(OC)cc2C1.O=C(O)/C=C\C(=O)O [U-99194A maleate]
5. CC(=O)NNC(=O)N1Cc2ccccc2Oc2ccc(Cl)cc21

Response:
1. 2.03
2. 1.919
3. 0.3471
4. -1.037
5. 1.1062
